The reported measurements were obtained from patent US10370333B2.

The following are reported IC50 results, target or system TNAP (Homo sapiens (Human)).

Check out these entries, answers already filled in.
COc1ccc(OC)c(S(=O)(=O)Nc2ccnnc2)c1 ... > 1000 nM
COc1ccc(OC)c(S(=O)(=O)Nc2cncc(-c3nccs3)c2)c1 ... < 100 nM
O=S(=O)(Nc1cncc(-c2ncccn2)c1)c1cc(Cl)ccc1OC(F)(F)F ... > 1000 nM
COc1ccc(Cl)cc1S(=O)(=O)Nc1cncc(-c2cnn(C)c2)c1 ... < 100 nM
COc1ccc(OC)c(S(=O)(=O)Nc2ccn(C)n2)c1 ... > 1000 nM

For the compound `COc1ccc(Br)cc1S(=O)(=O)Nc1cncc(C(=O)NC2CCCCC2)c1` , the measured IC50 on TNAP (Homo sapiens (Human)) was < 100 nM

For the compound `COc1ccc(Br)cc1S(=O)(=O)Nc1cncc(-c2ccc(O)cc2)c1` , the measured IC50 on TNAP (Homo sapiens (Human)) was < 100 nM

For the compound `COc1ccc(Br)cc1S(=O)(=O)Nc1ccn(C)n1` , the measured IC50 on TNAP (Homo sapiens (Human)) was > 1000 nM

For the compound `COc1ccc(Br)cc1S(=O)(=O)Nc1ccc(Nc2ccccc2)nc1` , the measured IC50 on TNAP (Homo sapiens (Human)) was > 1000 nM

For the compound `COc1ccc(Cl)cc1S(=O)(=O)Nc1cncc(-c2ccc(Br)cc2)c1` , the measured IC50 on TNAP (Homo sapiens (Human)) was 100 to 1000 nM

For the compound `CNC(=O)c1cncc(NS(=O)(=O)c2cc(Br)ccc2OC(F)(F)F)c1` , the measured IC50 on TNAP (Homo sapiens (Human)) was 100 to 1000 nM

For the compound `COc1ccc(Br)cc1S(=O)(=O)Nc1cncc(-c2ccccc2)c1` , the measured IC50 on TNAP (Homo sapiens (Human)) was < 100 nM

For the compound `COc1ccc(Br)cc1S(=O)(=O)Nc1nccs1` , the measured IC50 on TNAP (Homo sapiens (Human)) was > 1000 nM

For the compound `CCOC(=O)c1cncc(NS(=O)(=O)c2cc(Cl)ccc2OC)c1` , the measured IC50 on TNAP (Homo sapiens (Human)) was < 100 nM

For the compound `COCCN(c1cnc2ccccc2c1)S(=O)(=O)c1cc(OC)ccc1OC` , the measured IC50 on TNAP (Homo sapiens (Human)) was > 1000 nM

For the compound `COc1ccc(OC(F)(F)F)cc1S(=O)(=O)Nc1cncc(-c2ccc(F)cc2)c1` , the measured IC50 on TNAP (Homo sapiens (Human)) was 100 to 1000 nM

For the compound `COc1ccc(Br)cc1S(=O)(=O)Nc1cncc(-c2nccs2)c1` , the measured IC50 on TNAP (Homo sapiens (Human)) was < 100 nM

For the compound `COc1ccc(Br)cc1S(=O)(=O)Nc1cncc(-c2ccccn2)c1` , the measured IC50 on TNAP (Homo sapiens (Human)) was < 100 nM
